meta.source: ChEMBL document CHEMBL1147420

target: Chymotrypsinogen B (Homo sapiens) (UniProt P17538); test: Compound was evaluated for in vitro inhibition of chymotrypsinogen acting as esterase at 0.1 mM concentration; type: functional
Sequence (P17538 34-164 limits assumed, other chains not shown): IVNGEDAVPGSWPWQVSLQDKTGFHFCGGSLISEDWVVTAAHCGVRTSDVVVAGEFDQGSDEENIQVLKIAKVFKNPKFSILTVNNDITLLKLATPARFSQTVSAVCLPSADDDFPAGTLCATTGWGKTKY
Sequence (P17538 167-263 limits assumed, other chains not shown): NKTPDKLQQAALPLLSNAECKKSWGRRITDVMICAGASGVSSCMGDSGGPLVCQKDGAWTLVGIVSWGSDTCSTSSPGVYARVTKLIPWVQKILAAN
recorded_endpoint: inhibition (%)
# number only, unit % dropped from output

Reference set, count: 8
CO/N=C/c1ccc2ccc(=O)oc2c1: 16.6
O=c1ccc2ccc(/C=N/O)cc2o1: 28.5
O=c1ccc2ccc(/C=N/Nc3ccccc3)cc2o1: 30.6
CC(O)Cc1ccc2ccc(=O)oc2c1 (stereo unspecified): 31.3
CN/N=C/c1ccc2ccc(=O)oc2c1: 10
O=c1ccc2ccccc2o1: 28.5
CC(=O)CC(c1ccccc1)c1c(O)c2ccccc2oc1=O (stereo unspecified): 18.4
O=Cc1ccc2ccc(=O)oc2c1: 22.7

*Q* Form field: inhibition recorded for O=c1ccc2ccc(/C=N/c3ccccc3)cc2o1 with Chymotrypsinogen B (Homo sapiens) (UniProt P17538) (enter value)
*A* 10

*Q* Form field: inhibition recorded for O=c1ccc2ccc(/C=N/N=C/c3ccc4ccc(=O)oc4c3)cc2o1 with Chymotrypsinogen B (Homo sapiens) (UniProt P17538) (enter value)
*A* 29.9

*Q* Form field: inhibition recorded for Cc1ccc2ccc(=O)oc2c1 with Chymotrypsinogen B (Homo sapiens) (UniProt P17538) (enter value)
*A* 16.4
